Test system: SF-268 CNS
Experiment: NCI-60 one-dose screen, 48 h
Conditions: 10 µM
Experimental: Cells are grown in 96 well plates and exposed to the test compound for 48 hours. Compounds are tested at a single concentration, which is 10^-5 M for most compounds. The reported endpoint is percent growth (GI% or GIPRCNT), where numbers from 0 - 100% represent growth inhibition, and numbers from -100% - 0 represent cell death. For example, a value of 40 represents 60% growth inhibition. A value of 0 means no net growth occurred over the course of the experiment. […]
Compounds without any hit were thinned out: in the full panel of roughly 83,000, 20% have a hit. Activity calls are given as the source filed them. Rule for the calls: active = growth percent below 10; inactive = the rest.
Hi there, use one of these labels in your reply, thanks! active, inactive

>  <compound>
C[N+](C)(C)c1ncnc2nc[nH]c12

>  <qualitative_label>
inactive

$$$$

Input line: # lookup: test call for `CSc1nc(=O)n(Cc2ccc(Cl)cc2)c(=O)[nH]1`
Output line: inactive

Input line: # lookup: test call for `c1ccc([I+]c2ccccc2)cc1`
Output line: inactive

Input line: # lookup: test call for `CN(C)c1ccc(-c2cc(-c3cccc(NS(C)(=O)=O)c3)nc(N)c2C#N)cc1`
Output line: inactive

###

Test system: SF-295 CNS
Assay: NCI-60 one-dose screen, 48 h
Conditions: 10 µM
Protocol: Cells are grown in 96 well plates and exposed to the test compound for 48 hours. Compounds are tested at a single concentration, which is 10^-5 M for most compounds. The reported endpoint is percent growth (GI% or GIPRCNT), where numbers from 0 - 100% represent growth inhibition, and numbers from -100% - 0 represent cell death. For example, a value of 40 represents 60% growth inhibition. A value of 0 means no net growth occurred over the course of the experiment. […]
About 83,000 compounds went through this panel and 20% of them were active in at least one assay; those are over-represented in the sample as a whole. Activity calls are given as the source filed them. How the source made its calls: active means growth percent below 10; inactive means the rest.
Hi there, use one of these labels in your reply, thanks! True = active, False = inactive

Worked examples follow.
>  <molecule>
CN(CCc1ccccn1)c1ccccc1

>  <qualitative_label>
False

$$$$
>  <molecule>
O=S(=O)(NCCNc1nccc(-c2c(-c3ccc(F)cc3)nc3sccn23)n1)c1ccc2ccccc2c1

>  <qualitative_label>
False

$$$$
>  <molecule>
CCN(CC)CCN1CC(=O)Nc2cc(Cl)ccc21

>  <qualitative_label>
False

$$$$
>  <molecule>
CCN(CC)CCNc1ccc(CO)c2oc3cc(Cl)ccc3c(=O)c12

>  <qualitative_label>
False

$$$$
>  <molecule>
CN1CC[C@@H](c2c(O)cc(O)c3c(=O)cc(-c4ccccc4Cl)oc23)[C@@H](O)C1

>  <qualitative_label>
True

$$$$

Input line: # lookup: test call for `N#Cc1ncc(Br)c(NC2CCCCCC2)n1`
Output line: False

###

System: SF-539 CNS
Assay: NCI-60 one-dose screen, 48 h (100 = growth as untreated, 0 = no growth, -100 = all killed)
Conditions: 10 µM
Protocol: Cells are grown in 96 well plates and exposed to the test compound for 48 hours. Compounds are tested at a single concentration, which is 10^-5 M for most compounds. The reported endpoint is percent growth (GI% or GIPRCNT), where numbers from 0 - 100% represent growth inhibition, and numbers from -100% - 0 represent cell death. For example, a value of 40 represents 60% growth inhibition. A value of 0 means no net growth occurred over the course of the experiment. […]
This is part of a sample that, as a whole, favours compounds with a hit. Of some 83,000 tested, about 20% had one in any assay.
parameter_measured: growth (%)
Report only the number, with the unit % understood.

>  <compound>
COc1ccc(-c2nc3sc(C4CC4)nn3c2/C=C2/C(=O)Nc3ccc(OC)cc32)cc1

>  <growth / %>
25.1

$$$$
>  <compound>
CCN(CC)CCN1CC(=O)Nc2cc(Cl)ccc21

>  <growth / %>
105

$$$$

Input line: # get_value(readout= growth, system= SF-539 CNS) for `CCCCC/C=C/C(=O)CCc1ccc(O)c(OC)c1`
Output line: 90.1

Input line: # get_value(readout= growth, system= SF-539 CNS) for `O=C(Nc1cccc(Cl)c1)Nc1nccs1`
Output line: 88.4

Input line: # get_value(readout= growth, system= SF-539 CNS) for `COc1ccc(/C=C/C(=O)Nc2ccc(-c3nc4ccc(OC)cc4s3)cc2)cc1`
Output line: 102

Input line: # get_value(readout= growth, system= SF-539 CNS) for `O=C1/C(=C\c2ccc(F)cc2)CN(C(=O)c2ccc([N+](=O)[O-])cc2)C/C1=C\c1ccc(F)cc1`
Output line: 58

Input line: # get_value(readout= growth, system= SF-539 CNS) for `CC/C(=N\N=C(/CC)c1ccc(Br)cc1)c1ccc(Br)cc1`
Output line: 99.3

Input line: # get_value(readout= growth, system= SF-539 CNS) for `CN(C)CCN1C(=O)c2cccc3cc(N)cc(c23)C1=O`
Output line: 33.4

Input line: # get_value(readout= growth, system= SF-539 CNS) for `Oc1[nH]c2ccc(Cl)cc2c1/C=c1/ccc2c(c1)N=C(c1cc(F)cc(F)c1)N=2`
Output line: 83.3

Input line: # get_value(readout= growth, system= SF-539 CNS) for COc1cc(C2CC(c3ccc(Nc4ccnc5cc(Cl)ccc45)cc3)=NN2c2ccc(Cl)cc2)cc(OC)c1OC (configuration not stated)
Output line: 59.3

Input line: # get_value(readout= growth, system= SF-539 CNS) for `O=C(/C(=C/c1ccccc1)CN1CCCCC1)c1ccccc1`
Output line: -43.4

Input line: # get_value(readout= growth, system= SF-539 CNS) for `CSCCCNC(=O)c1ccc2c(c1)/C(=C/c1[nH]c(C)cc1C)C(=O)N2`
Output line: 13.2

###

system: SK-OV-3 ovarian; assay: NCI-60 one-dose screen, 48 h (100 = growth as untreated, 0 = no growth, -100 = all killed); conditions: 10 µM
About 83,000 compounds went through this panel and 20% of them were active in at least one assay; those are over-represented in the sample as a whole.
parameter_measured: growth (%)
Report only the number, with the unit % understood.

Sample records with growth:
>  <compound>
O=C(Nc1ccncc1)C(=O)c1cn(S(=O)(=O)c2ccc(F)cc2)c2ccccc12

>  <growth, %>
91.2

$$$$
>  <compound>
O=C1OCC2=C1C(c1cccc(Cl)c1)c1cc3c(cc1N2CCO)OCCO3 (stereo not given)

>  <growth, %>
26.1

$$$$
>  <compound>
CO/N=C(/C(=O)NC1C(=O)N2C(C(=O)O)=C(COC(N)=O)CSC12)c1ccco1 (stereo not given)

>  <growth, %>
114

$$$$
>  <compound>
CN(C)CCN1C(=O)c2cccc3cc(N)cc(c23)C1=O

>  <growth, %>
36.9

$$$$

Input line: What value of measured growth is listed for `CN(Cc1ccccc1)Cc1ccc([N+](=O)[O-])cc1I` ?
Output line: 94.9

Input line: What value of measured growth is listed for `Cc1cs/c(=N\NC(=O)c2cc(-c3cc4ccccc4o3)nn2-c2ccccc2)n1-c1ccccc1` ?
Output line: 91.2

Input line: What value of measured growth is listed for `N=C(N)c1ccc(-c2ccc(-c3cccs3)o2)cc1` ?
Output line: 79.4

###

As shown below, each of these molecules has a reported growth value.
System: SNB-19 CNS
Test: NCI-60 one-dose screen, 48 h (100 = growth as untreated, 0 = no growth, -100 = all killed)
Conditions: 10 µM
Description: Growth inhibition of the SNB-19 human tumor cell line is measured as a screen for anti-cancer activity. Cells are grown in 96 well plates and exposed to the test compound for 48 hours. Compounds are tested at a single concentration, which is 10^-5 M for most compounds. The reported endpoint is percent growth (GI% or GIPRCNT), where numbers from 0 - 100% represent growth inhibition, and numbers from -100% - 0 represent cell death. For example, a value of 40 represents 60% growth inhibition. […]
The panel holds about 83,000 compounds, 20% with a hit somewhere; the sample as a whole holds those more often. Activity calls are given as the source filed them. The calls were made as follows: active = growth percent below 10; inactive = the rest.

Sample records with growth:
>  <molecule>
CS(=O)(=O)Nc1cccc(-c2cc(-c3ccccc3Cl)c(C#N)c(N)n2)c1

>  <parameter_measured>
growth

>  <reported_measurement>
49% (inactive)

$$$$
>  <molecule>
COc1ccc(C2=NN(C(=O)c3ccc(S(C)(=O)=O)cc3)C(c3ccc(OC)c(OC)c3)C2)c(OC)c1 (centres undefined)

>  <parameter_measured>
growth

>  <reported_measurement>
99.1% (inactive)

$$$$
>  <molecule>
COc1ccc(OC)c(/C=C/c2nnc(Nc3ccc(Cl)cc3)o2)c1

>  <parameter_measured>
growth

>  <reported_measurement>
84.9% (inactive)

$$$$
>  <molecule>
CCCCCCCCCCCCCCCCCCOCC(COCCOCC[N+]1(CCCCCC(=O)[O-])CCCC1)Oc1ncccn1 (centres undefined)

>  <parameter_measured>
growth

>  <reported_measurement>
18.5% (inactive)

$$$$
>  <molecule>
COc1cccc(-c2cc(-c3cccc(NS(C)(=O)=O)c3)nc(N)c2C#N)c1O

>  <parameter_measured>
growth

>  <reported_measurement>
42.3% (inactive)

$$$$
>  <molecule>
C=C1c2c(C)nn(-c3ccc(OC)cc3)c2N(C)C23C[C@@H]1C1(C)c4c(C)nn(-c5ccc(OC)cc5)c4N(C)C(C)(C[C@H]12)C3 (some centres undefined)

>  <parameter_measured>
growth

>  <reported_measurement>
46.8% (inactive)

$$$$
>  <molecule>
CC/C(=N\N=C(/CC)c1ccc(Br)cc1)c1ccc(Br)cc1

>  <parameter_measured>
growth

>  <reported_measurement>
108% (inactive)

$$$$
>  <molecule>
O=C(CC(c1ccccc1)N1CCOCC1)c1ccccc1 (centres undefined)

>  <parameter_measured>
growth

>  <reported_measurement>
85% (inactive)

$$$$

Input line: # get_value(readout= growth, system= SNB-19 CNS) for `CC1=C(N2CCOCC2)C(N2CCOCC2)=C(C)C(=O)C1=O`
Output line: 103% (inactive)
